# System: Vero-E6
# assay.name: primary screen, phospholipidosis by LipidTOX staining; higher = more effect of the substance
# measurement.context: 10 µM
About 190 (3.5%) of roughly 5,400 compounds showed an effect of 50% or more. The entries come from a sample that favours strong results as a whole.
As shown below, each of these compounds has a reported result_ITMP value.

# compound, assayed.system, result_ITMP (%)
data = [
    ("CC(CN1c2ccccc2Sc2ccccc21)N(C)C (stereo not shown)", "Vero-E6", 55.4),
    ("COc1ccc(C(=O)/C(Cc2cc(OC)c(OC)c(OC)c2)=C(\\C(=O)[O-])c2ccc3c(c2)OCO3)cc1", "Vero-E6", -3.57),
    ("COc1cc(NC(C)CCCN)c2ncccc2c1 (stereo not shown)", "Vero-E6", 1.37),
    ("c1ccc(CC(c2ccccc2)N2CCCCC2)cc1 (racemic)", "Vero-E6", 6.03),
    ("CCN(CC)C(C)CN1c2ccccc2Sc2ccccc21 (stereo not shown)", "Vero-E6", 63.9),
    ("CC(CC(C(N)=O)(c1ccccc1)c1ccccc1)N(C)C (stereo not shown)", "Vero-E6", -2.3),
    ("Cc1ccc(C(=O)Nc2ccc(S(=O)(=O)[O-])c3cc(S(=O)(=O)[O-])cc(S(=O)(=O)[O-])c23)cc1NC(=O)c1cccc(NC(=O)Nc2cccc(C(=O)Nc3cc(C(=O)Nc4ccc(S(=O)(=O)[O-])c5cc(S(=O)(=O)[O-])cc(S(=O)(=O)[O-])c45)ccc3C)c2)c1", "Vero-E6", -3.34),
    ("COC(=O)C1=C(C)NC(C)=C(C(=O)NCCCN2CCC(c3ccccc3)(c3ccccc3)CC2)C1c1ccc([N+](=O)[O-])cc1 (stereo not shown)", "Vero-E6", 60.6),
    ("C=CCc1ccccc1OCC(O)CNC(C)C (stereo not shown)", "Vero-E6", 12.1),
    ("COC(=O)C1=C(C)NC(C)=C(C(=O)O[C@H]2CCN(Cc3ccccc3)C2)[C@H]1c1cccc([N+](=O)[O-])c1", "Vero-E6", 21.2),
]
